Measurement Protocol: Pharmacokinetic monitoring of plasma LPV and RTV (HPLC/MS–MS) in TB/HIV co-infected patients on LPV/RTV plus rifabutin
Assay type: in vivo, human
Condition Context: human, plasma, oral, LPV/RTV 400/100 mg twice daily with RBT 300 mg TPW (n = 7); median and IQR
Observed Property: Tmax
Number first, unit second.

Report Tmax for "CC(C)c1nc(CN(C)C(=O)N[C@H](C(=O)N[C@@H](Cc2ccccc2)C[C@H](O)[C@H](Cc2ccccc2)NC(=O)OCc2cncs2)C(C)C)cs1" please.
2 h

----------
Measurement Protocol: Pharmacokinetic monitoring of plasma LPV and RTV (HPLC/MS–MS) in TB/HIV co-infected patients on LPV/RTV plus rifabutin
Format: in vivo, human
Condition Context: human, plasma, oral, LPV/RTV 400/100 mg twice daily with RBT 300 mg TPW (n = 7); median and IQR; read-out: Cmax
Observed Property: Cmax (ng/mL)
Give the quantity in ng/mL, number only.

Report Cmax for "CC(C)c1nc(CN(C)C(=O)N[C@H](C(=O)N[C@@H](Cc2ccccc2)C[C@H](O)[C@H](Cc2ccccc2)NC(=O)OCc2cncs2)C(C)C)cs1" please.
1500
